Tested on: beta-actin protein expression
Assay comment: Toxicity in mouse RAW264.7 cells assessed as inhibition of beta-actin protein expression at 10 uM by Western blotting analysis; values are per cent of control
Endpoint: residual activity at 10 µM (%)
Give your result in % as a bare value.

Challenge: // returns reported residual activity at 10 µM for input CC1=C(C)C(=O)O[C@@H]([C@@H](C)[C@H]2CC[C@H]3[C@@H]4CCC5=CC(=O)C=C[C@]5(C)[C@H]4CC[C@]23C=O)C1 [PARAMINABEOLIDE A]
Response given: 66.5

----------
This listing pairs compounds with measured IC50.
Test system: MCF7
Assay comment: Cytotoxicity against human MCF7 cells by MTT assay
Format: functional, cell-based
Give your result in µM as a bare value.

CC1=C(C)C(=O)O[C@@H]([C@@H](C)[C@H]2CC[C@H]3[C@@H]4CCC5=CC(=O)C=C[C@]5(C)[C@H]4CC[C@]23C)C1 [MINABEOLIDE 1]
18.7

Kindly consider the entry below.
Challenge: // returns reported IC50 for input CC(=O)OC[C@]12CC[C@H]3[C@@H](CCC4=CC(=O)C=C[C@@]43C)[C@@H]1CC[C@@H]2[C@H](C)[C@H]1C[C@H](C)[C@H](C)C(=O)O1 [PARAMINABEOLIDE B]
Response given: 14.9
